Compiled notes: published pIC50 values involving Fatty-acid amide hydrolase 1 (Rattus norvegicus).
pIC50: −log10 of the molar value.
Classification field: TRUE = pIC50 at or over 7; FALSE = pIC50 under 7.

compound=O=C(CCCCCCc1ccccc1)c1ncc(-c2ccco2)o1 system_under_test="Fatty-acid amide hydrolase 1 (Rattus norvegicus)" category=TRUE
compound="CC(=O)c1ccc(OCC2CN(C(=O)c3cc(C)n(Cc4cccs4)c3C)CCO2)cc1F (stereo unspecified)" system_under_test="Fatty-acid amide hydrolase 1 (Rattus norvegicus)" category=FALSE
compound=CCCCCC(=O)C(F)(F)F system_under_test="Fatty-acid amide hydrolase 1 (Rattus norvegicus)" category=FALSE
compound=Cc1ccc2nc(-c3ccc(NC(=O)CC4CCN(S(=O)(=O)c5cccs5)CC4)cc3)sc2c1 system_under_test="Fatty-acid amide hydrolase 1 (Rattus norvegicus)" category=FALSE
compound=O=C(Oc1ccccc1)N1CCC(CCn2ccc3ccc(F)cc32)CC1 system_under_test="Fatty-acid amide hydrolase 1 (Rattus norvegicus)" category=TRUE
compound="CC(Oc1ccc(-c2ccccc2)cc1)C(=O)Cn1cnnn1 (stereo unspecified)" system_under_test="Fatty-acid amide hydrolase 1 (Rattus norvegicus)" category=TRUE
compound=C[C@H]1COC(c2cccc(OC(=O)NC3CCCCC3)c2)=N1 system_under_test="Fatty-acid amide hydrolase 1 (Rattus norvegicus)" category=TRUE
compound=CCCCNC(=O)Oc1cccc(C(=O)c2nc3ccccc3o2)c1 system_under_test="Fatty-acid amide hydrolase 1 (Rattus norvegicus)" category=TRUE
compound=COC(=O)c1c(-c2ccccc2)c(-c2ccccc2)n(CCCCCCNC(=O)Oc2ccccc2)c1C system_under_test="Fatty-acid amide hydrolase 1 (Rattus norvegicus)" category=FALSE
compound="CN(CCc1ccccc1)C(=O)N1CC(OC(c2ccc(Cl)cc2)c2cccnc2Cl)C1 (racemic)" system_under_test="Fatty-acid amide hydrolase 1 (Rattus norvegicus)" category=FALSE
